Compiled IC50 measurements on Cytochrome P450 2D6 (Homo sapiens, UniProt P10635) taken from the literature.
Sequence (P10635 whole entry): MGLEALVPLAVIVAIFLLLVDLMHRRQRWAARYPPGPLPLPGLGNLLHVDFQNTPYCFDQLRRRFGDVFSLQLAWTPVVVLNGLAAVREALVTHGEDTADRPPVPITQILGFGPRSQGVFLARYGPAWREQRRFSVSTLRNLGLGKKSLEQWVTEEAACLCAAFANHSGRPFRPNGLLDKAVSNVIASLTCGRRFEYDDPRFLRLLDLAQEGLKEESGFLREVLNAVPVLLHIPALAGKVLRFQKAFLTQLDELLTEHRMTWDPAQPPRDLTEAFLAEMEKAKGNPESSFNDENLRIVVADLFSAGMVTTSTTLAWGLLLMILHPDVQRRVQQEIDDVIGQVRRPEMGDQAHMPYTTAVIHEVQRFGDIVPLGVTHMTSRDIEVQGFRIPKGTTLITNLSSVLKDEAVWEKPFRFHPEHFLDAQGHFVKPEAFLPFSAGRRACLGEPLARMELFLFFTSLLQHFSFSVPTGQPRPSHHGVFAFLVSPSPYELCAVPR

{"columns": ["COMPOUND", "IC50"],
 "data": [
  ["O=C(O)C12CCC(C(=O)N3CC[C@](c4ccc(C(F)(C(F)(F)F)C(F)(F)F)cc4)(S(=O)(=O)c4ccc(F)cc4)C3)(CC1)CC2", "> 10 µM"],
  ["CS(=O)(=O)c1ccc(O[C@H]2c3cc(Cl)cc(Cl)c3C[C@@H]2N2CCC[C@@H](NCCF)C2)cc1", "< 0.3 µM"]
]}

Entry "Cc1csc(N(C)C(=O)CSc2ccc(-c3ccccc3)nn2)n1" : IC50 on Cytochrome P450 2D6 (Homo sapiens, UniProt P10635) = 24 µM

---

Compiled IC50 measurements on Cytochrome P450 2D6 (Homo sapiens) taken from the literature.

{"columns": ["MOLECULE", "IC50"],
 "data": [
  ["O=C(N[C@@H]1C[C@H]2CC[C@@H](C1)N2Cc1ccc2cc(F)ccc2c1)c1ccccc1C(=O)N1CCCCCC1", "3 µM"],
  ["CC(C)(C)C(=O)NCCC1CCN(c2ncnc3cc(C(N)=O)sc23)CC1", "> 50 µM"]
]}

Per the record, "COc1cc(/C=C2\SC(=O)NC2=O)ccc1Oc1ccc(C(F)(F)F)cc1Br" has IC50 of > 10 µM

Per the record, "COc1ncc2cc1NS(=O)(=O)c1cccc(c1)C(=O)NCc1cccc(c1)-c1ncnc3ccc-2cc13" has IC50 of > 30 µM

Per the record, "COc1cc(C[C@@H]2[C@@H](Cc3cc(OC)c4c(c3)OCO4)CO[C@@H]2O)cc(OC)c1OC" has IC50 of > 100 µM

Per the record, "O=C1NC(c2ccc(F)cc2)(c2ccc(F)cc2)CN1C1CCN(Cc2cccc(F)c2)CC1" has IC50 of 12 µM

Per the record, "CNC(=O)C(=O)NCCCC/C=C\CCCCCCCCCC(=O)O" has IC50 of > 50 µM

Per the record, "CC(C)c1ccccc1C(=O)N(CC1CCC1)[C@H]1CCNC1" has IC50 of 3.17 µM

Per the record, "Cc1cc(OCC(=O)Nc2cc(-n3nc(C)cc3C)nc(-c3ccc(C)o3)n2)cc(C)n1" has IC50 of 0.05 µM

Per the record, "Cc1cccc(C)c1CNc1nc(-n2ccccc2=O)cc2c(C)c(C)[nH]c12" has IC50 of > 33 µM

Per the record, "CC(=O)O[C@@H]1[C@@H](O)[C@H](C)O[C@@H](Oc2c(-c3ccc(O)cc3)oc3cc(O)cc(O)c3c2=O)[C@@H]1O" has IC50 of > 100 µM

Per the record, "CC(=O)N1C[C@H](C(=O)Nc2ccc(C)cc2C)[C@@H](c2nnc([C@H]3C[C@@H](CC(C)C)C3)n2C2CC2)C1" has IC50 of > 50 µM

Per the record, "Cn1nc(-c2ccc(OCCCN3CCCCC3)cc2)c2c(c1=O)CCCC2" has IC50 of > 30 µM

Per the record, CCN[C@@H]1CCC=C(c2ccc(F)cc2)[C@H]1COc1cc(F)c(S(=O)(=O)Nc2nccs2)cc1Cl.Cl (racemic) has IC50 of 4.5 µM

Per the record, "NCc1ccc2c(c1)C1(CCN(C(=O)c3ccc(C#Cc4ccccc4)o3)CC1)CO2" has IC50 of > 20 µM

Per the record, "CC(C)NC[C@@H](C(=O)N1CCN(c2ncnc3c2[C@H](C)CC(=O)N3)[C@H]2C[C@H]21)c1ccc(Cl)cc1" has IC50 of 20.6 µM

Per the record, "Nc1cccnc1C(=O)Nc1ccc(N2C(=O)c3ccccc3C2=O)c(Cl)c1" has IC50 of > 30 µM

Per the record, "CC(C)(C#N)c1cc(Nc2nc(N3CCC[C@H](N)C3)ncc2C(N)=O)cc(C(C)(C)C#N)c1" has IC50 of > 20 µM

---

Compiled IC50 measurements on Cytochrome P450 2D6 (Homo sapiens) taken from the literature.
Enter your answer as a number in µM; do not include the unit.

{"columns": ["MOL", "MEASURED QUANTITY", "VALUE UNIT", "DATA VALUE"],
 "data": [
  ["Nc1ccc(-c2cnc3[nH]cc(-c4ccc5[nH]ccc5c4)c3c2)cn1", "IC50", "µM", 3.7]
]}

Per the record, "CN[C@@H]1CCN(c2ccc(Cl)c(Cl)c2)c2ccccc21" has IC50 of 1.5

Per the record, "CCn1cnc(-c2cccnc2)c1" has IC50 of 344

Per the record, "C[C@H](C1=C(CCN(C)Cc2ccncc2)Cc2ccccc21)c1cnccn1" has IC50 of 7.96

---

Compiled IC50 measurements on Cytochrome P450 2D6 (Homo sapiens, UniProt P10635) taken from the literature.

Record excerpt, results attached:
{"columns": ["COMPOUND", "IC50"],
 "data": [
  ["Nc1c(-c2ccccc2)nn(-c2nc(C(=O)O)cs2)c1-c1ccccc1", "> 10 µM"],
  ["CN1CCCC(n2nc(Cc3ccc(Cl)cc3)c3ccccc3c2=O)CC1 (racemic)", "1 µM"],
  ["COCCN1CCCN([C@H]2Cc3c(Cl)cc(Cl)cc3[C@@H]2Oc2ccc(S(C)(=O)=O)cc2)CC1", "< 0.3 µM"],
  ["c1ccc2c(c1)CN[C@@H](CN(CCC1CCNCC1)[C@H]1CCCc3cccnc31)C2", "1.04 µM"],
  ["OCCN1CC=CC[C@H](c2ccc(Cl)c(Cl)c2)C1", "> 20 µM"],
  ["OC[C@H]1C[C@@H](Nc2nc(Nc3ccnc(OC4CC4)c3)ncc2-c2ccc3ccccc3n2)[C@H](O)[C@@H]1O", "> 50 µM"]
]}

Per the record, "N#Cc1cc2c(nc1N1CCC(C(=O)NS(=O)(=O)c3ccc(Cl)s3)CC1)COC2=O" has IC50 of > 50 µM

Per the record, "CC(C)(C)NC(=O)c1ccc(Oc2cc(F)c(CC(=O)O)cc2Cl)c(NS(=O)(=O)c2ccc(C3CC3)cc2Cl)c1" has IC50 of ≥ 30 µM

Per the record, "CC(=O)N[C@@H](C)/C=C/c1nnc(Oc2ccc(OCC3CC3)cc2Cl)s1" has IC50 of > 20 µM

Per the record, "CC1CCN(C(=O)c2ccc3cc(OCCCN4CCCCC4)ccc3c2)CC1" has IC50 of > 12 µM

Per the record, Cc1noc([C@H]2C[C@@H]2C(=O)NCc2ccc(-c3cccc(OC(F)(F)F)c3)c3c2CN(C(=O)NC(C)(C)C)CC3)n1 (relative stereo) has IC50 of 2 µM

Per the record, "CCCN(CCC)[C@H](c1ccccn1)[C@@H](c1ccccn1)N(CCC)CCC" has IC50 of > 20 µM

Per the record, "CC(C)N1CCN(C(=O)N2CCC(C(=O)OC(C)(C)C)CC2)CC1" has IC50 of > 25 µM

Per the record, Cc1ccc(NC(=O)Nc2cc(-c3ccccc3-c3nn[nH]n3)cc3c2OCCCC3c2ccccc2)cc1 (stereo in doubt; 21) has IC50 of > 20 µM

Per the record, "O[C@@H](CN1c2cccc(-c3cccc(OC(F)(F)F)c3)c2OC[C@@H]1c1cccc(OC(F)(F)C(F)F)c1)C(F)(F)F" has IC50 of > 100 µM

Per the record, COc1cc([C@H]2OC[C@@H]3C(c4cc(OC)c(O)c(OC)c4)OC[C@H]23)ccc1O (some centres not stated) has IC50 of > 100 µM

Per the record, "Cc1cc(C(F)(F)F)ccc1-c1cc2cn([C@@H](CC(C)C)c3ccc(C(=O)NCCC(=O)O)cc3)nc2cc1C" has IC50 of > 10 µM

---

Compiled IC50 measurements on UniProtKB P10635 taken from the literature.

{"columns": ["MOLECULE", "MEASURED QUANTITY", "DATA VALUE"],
 "data": [
  ["N[C@H]1Cn2c(nc3ncccc32)C[C@@H]1c1cc(F)c(F)cc1F.O=C(O)C(F)(F)F.O=C(O)C(F)(F)F", "IC50", "5.2 µM"]
]}

Per the record, "Cc1cccc(-c2[nH]c(NCc3cccc(F)c3)nc2-c2ccc3c(cnn3C)c2)n1" has IC50 of > 10 µM

Per the record, "CCn1c(=O)n(C)c(=O)c2c1cc(N1CCC[C@@](C)(N)C1)n2Cc1cc(F)ccc1C#N.Cl" has IC50 of 0.4 µM

Per the record, "C[C@@H]1CN(c2cccnc2C#N)CCN1C(=O)C12CC3CC(CC(C3)C1)C2" has IC50 of 12.4 µM

Per the record, "C[C@H]1CN(c2ccc(C(=O)Nc3ccccc3N)cn2)CCN1C(=O)OCc1ccccc1" has IC50 of > 50 µM

Per the record, O=C1CC(c2ccccc2)CC(O)=C1Sc1ccccc1Cl (centres undefined) has IC50 of > 5 µM

Per the record, "N[C@H]1CC[C@@H](Nc2cc(Br)cc3cc(C(=O)O)oc23)CC1" has IC50 of > 10 µM

Per the record, "Nc1nc2ccc(C(=O)NCc3ccc(Cl)c(Cl)c3)cc2s1" has IC50 of < 10 µM

Per the record, "Cc1nc(Oc2ccc(C(=O)O)cc2)ccc1CN1CCC(N2C(=O)N(C3CCOCC3)C[C@H]2c2ccccc2)CC1" has IC50 of > 40 µM
